Form field: koff (one value per entry).
Biological target: T1, cIL2Rg-Fc (lot#P210115SV5) (cynomolgus, UniProt A0A2K5VGJ6 23-262)
T1 construct: Named only by lot number; also called cynomolgus IL2Rg-Fc; not shown: Fc of the fusion protein
T1 sequence: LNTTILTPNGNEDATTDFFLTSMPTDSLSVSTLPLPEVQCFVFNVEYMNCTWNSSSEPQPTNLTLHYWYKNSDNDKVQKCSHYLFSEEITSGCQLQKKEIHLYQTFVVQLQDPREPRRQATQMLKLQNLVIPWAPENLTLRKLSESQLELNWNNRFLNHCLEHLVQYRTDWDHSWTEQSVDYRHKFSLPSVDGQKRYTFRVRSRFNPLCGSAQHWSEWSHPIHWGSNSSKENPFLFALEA
Assay: SPR (Biacore T200), Fc-fused ligand captured on chip, dual VHH as analyte, 1:1 Langmuir fit
observable: koff (s⁻¹)

>>> experimentalresult("DR438(DR235-DR234) (bispecific antibody, Anti-hIL10Ra/hIL2Rg dual VHH with ASH6 handle; also called D12) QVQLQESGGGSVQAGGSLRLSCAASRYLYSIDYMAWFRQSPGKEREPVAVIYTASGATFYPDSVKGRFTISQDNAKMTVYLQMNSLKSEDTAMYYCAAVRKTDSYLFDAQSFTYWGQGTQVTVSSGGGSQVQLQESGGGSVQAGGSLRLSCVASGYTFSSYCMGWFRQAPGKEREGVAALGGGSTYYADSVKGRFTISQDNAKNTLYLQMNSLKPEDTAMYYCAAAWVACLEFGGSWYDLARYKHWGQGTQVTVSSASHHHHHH")
0.0012
>>> experimentalresult("DR466(DR240-DR232) (bispecific antibody, Anti-hIL10Ra/hIL2Rg dual VHH with ASH6 handle; also called H7) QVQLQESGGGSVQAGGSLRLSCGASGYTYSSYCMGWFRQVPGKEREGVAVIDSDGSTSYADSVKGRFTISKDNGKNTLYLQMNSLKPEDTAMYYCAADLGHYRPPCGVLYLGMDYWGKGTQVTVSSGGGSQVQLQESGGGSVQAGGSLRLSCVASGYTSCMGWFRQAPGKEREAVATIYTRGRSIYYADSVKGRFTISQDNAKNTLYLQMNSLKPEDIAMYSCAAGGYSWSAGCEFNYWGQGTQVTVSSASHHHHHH")
0.0037
>>> experimentalresult("DR449(DR237-DR233) (bispecific antibody, Anti-hIL10Ra/hIL2Rg dual VHH with ASH6 handle; also called F3) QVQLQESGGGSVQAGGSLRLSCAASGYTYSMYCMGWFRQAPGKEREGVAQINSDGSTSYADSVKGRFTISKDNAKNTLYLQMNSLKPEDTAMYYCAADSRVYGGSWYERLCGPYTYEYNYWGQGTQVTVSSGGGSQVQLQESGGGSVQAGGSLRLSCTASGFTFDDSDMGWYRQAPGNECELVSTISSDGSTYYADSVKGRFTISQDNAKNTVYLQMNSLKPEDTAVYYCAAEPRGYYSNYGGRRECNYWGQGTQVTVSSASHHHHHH")
0.0048
>>> experimentalresult("DR444(DR236-DR234) (bispecific antibody, Anti-hIL10Ra/hIL2Rg dual VHH with ASH6 handle; also called E8) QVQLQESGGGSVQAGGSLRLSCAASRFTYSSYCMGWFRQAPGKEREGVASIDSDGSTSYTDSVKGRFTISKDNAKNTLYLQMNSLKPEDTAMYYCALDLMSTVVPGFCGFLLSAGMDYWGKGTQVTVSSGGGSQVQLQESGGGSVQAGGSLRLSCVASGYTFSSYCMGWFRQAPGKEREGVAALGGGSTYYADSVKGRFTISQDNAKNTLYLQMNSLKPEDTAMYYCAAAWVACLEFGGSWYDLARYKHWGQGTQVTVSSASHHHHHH")
0.00077
>>> experimentalresult("DR441(DR236-DR231) (bispecific antibody, Anti-hIL10Ra/hIL2Rg dual VHH with ASH6 handle; also called F1) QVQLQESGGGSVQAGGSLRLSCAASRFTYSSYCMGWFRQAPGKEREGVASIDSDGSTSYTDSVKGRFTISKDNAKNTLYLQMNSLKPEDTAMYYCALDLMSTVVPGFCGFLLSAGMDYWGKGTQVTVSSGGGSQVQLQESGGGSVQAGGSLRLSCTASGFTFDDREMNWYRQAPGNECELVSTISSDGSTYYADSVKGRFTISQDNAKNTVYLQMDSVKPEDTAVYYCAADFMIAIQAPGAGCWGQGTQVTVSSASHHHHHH")
0.0028
